# Assay Details: Tmax in Beagle dog plasma at 3 mg/kg, po
# Type: ADME, organism-based, Canis lupus familiaris
# Set-up: dose 3 mg/kg, route oral
Property Label: Tmax (h)
Numbers only, in h.

Looking up CCCCOCCOc1ccc(-c2ccc3c(c2)/C=C(/C(=O)Nc2ccc([S@@+]([O-])Cc4cncn4CCC)cc2)CCCN3CC(C)C)cc1.CS(=O)(=O)O [CENICRIVIROC MESYLATE] , I see its Tmax listed as 2.7

----------
# Assay Details: AUC (0-24h) in Beagle dog at 3 mg/kg, po
# Assay type: ADME, organism-based, Canis lupus familiaris
# Design: time < 24 hr, dose 3 mg/kg, route oral
# Run Conditions: plasma
Property Label: AUC(0-t) at 24 h (ng·h/mL)
Give bare numbers, in ng·h/mL.

# AUC(0-t) at 24 h (compound: CCCCOCCOc1ccc(-c2ccc3c(c2)/C=C(/C(=O)Nc2ccc([S@@+]([O-])Cc4cncn4CCC)cc2)CCCN3CC(C)C)cc1.CS(=O)(=O)O [CENICRIVIROC MESYLATE] ) is 6010

----------
# Assay Details: Tmax in Sprague-Dawley rat plasma at 3 mg/kg, po
# Type: ADME, organism-based
# Design: dose 3 mg/kg, route oral
Property Label: Tmax (h)
One number for each entry, in h.

So, CCCCOCCOc1ccc(-c2ccc3c(c2)/C=C(/C(=O)Nc2ccc([S@@+]([O-])Cc4cncn4CCC)cc2)CCCN3CC(C)C)cc1.CS(=O)(=O)O [CENICRIVIROC MESYLATE] ? Its Tmax was 1.3

----------
# Assay Details: Bioavailability in cynomolgus monkey at 3 mg/kg, po
# Format: ADME, organism-based, Macaca fascicularis
# Run Conditions: in vivo
Property Label: bioavailability (%)
Numbers only, in %.

Sure, the documented bioavailability for CCCCOCCOc1ccc(-c2ccc3c(c2)/C=C(/C(=O)Nc2ccc([S@@+]([O-])Cc4cncn4CCC)cc2)CCCN3CC(C)C)cc1.CS(=O)(=O)O [CENICRIVIROC MESYLATE] is 15.6

----------
# Assay Details: Tmax in cynomolgus monkey plasma at 3 mg/kg, po
# Type: ADME, organism-based, Macaca fascicularis
# Design: dose 3 mg/kg, route oral
Property Label: Tmax (h)
One number for each entry, in h.

// CCCCOCCOc1ccc(-c2ccc3c(c2)/C=C(/C(=O)Nc2ccc([S@@+]([O-])Cc4cncn4CCC)cc2)CCCN3CC(C)C)cc1.CS(=O)(=O)O [CENICRIVIROC MESYLATE] : Tmax value = 2

----------
# Study Target: C-C chemokine receptor type 5 (Homo sapiens)
# Sequence (P51681 whole entry): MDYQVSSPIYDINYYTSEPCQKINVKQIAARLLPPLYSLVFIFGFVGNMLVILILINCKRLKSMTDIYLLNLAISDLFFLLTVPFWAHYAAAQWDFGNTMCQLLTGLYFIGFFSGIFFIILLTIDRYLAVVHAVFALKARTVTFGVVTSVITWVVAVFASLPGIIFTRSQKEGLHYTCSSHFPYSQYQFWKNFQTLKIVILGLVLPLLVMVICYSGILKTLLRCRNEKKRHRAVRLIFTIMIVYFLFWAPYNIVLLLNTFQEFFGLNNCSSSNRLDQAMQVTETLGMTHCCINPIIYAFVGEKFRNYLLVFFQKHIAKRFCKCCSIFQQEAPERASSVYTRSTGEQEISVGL
# Assay Details: Displacement of [125I]RANTES from CCR5 expressed in CHO cells
Please respond with reported pIC50 for every item in the list.
One number for each entry, as −log10 of the molar value.

Worked cases, answers included:
CCCCOCCOc1ccc(-c2ccc3c(c2)/C=C(/C(=O)Nc2ccc([S@@+]([O-])Cc4cncn4CCC)cc2)CCCCCN3CCC)cc1 7.60
CCCCOCCOc1ccc(-c2ccc3c(c2)/C=C(/C(=O)Nc2ccc([S@@+]([O-])Cc4cncn4CCC)cc2)CCCCN3CCC)cc1 8.33
CCCCOCCOc1ccc(-c2ccc3c(c2)/C=C(/C(=O)Nc2ccc([S@@+]([O-])Cc4nncn4CCC)cc2)CCCN3CCC)cc1 8.66

Reported pIC50 for CCCCOCCOc1ccc(-c2ccc3c(c2)/C=C(/C(=O)Nc2ccc([S@@+]([O-])Cc4nncn4CCC)cc2)CCCN3CC(C)C)cc1 was 8.62
